All values here come from the supplement of paper PMC9732359.

- measurement-protocol: protein stability index of a GFP-peptide fusion (yeast GPS) (PSI 1-4); higher = more stable; sorted into four equal gates, so the index is relative within each strain
- condition-parameters: doa10∆
quantity-name: protein stability index
Number, no unit, nothing else.

Worked set:
| entry-sequence | protein stability index |
| --- | --- |
| CEIHPSMILGVAASIIP [RPB2] | 1.35 |
| KFFTQSNLEKLPKYKEK [MED7] | 2.43 |
| RPFDSFGKLLQAYQFLN [ITC1] | 1.44 |

query: Supply recorded protein stability index for ITDKGTVDGRLYQLFKT [YJL039C/NUP192] here.
result: 3.19

query: State, in one line, measured protein stability index of STSENKISEGSAKPTFS [YOR098C/NUP1]
result: 3.63

query: For the sequence QIAKFVVGLGERVSPTD [RPT1] , give its reported protein stability index.
result: 2.62

query: Quote protein stability index reported for TWENEFLDSQRVWAEYA [PRP8] please.
result: 2.14

* * *

- measurement-protocol: protein stability index of a GFP-peptide fusion (yeast GPS) (PSI 1-4); higher = more stable; sorted into four equal gates, so the index is relative within each strain
- condition-parameters: san1∆
Listed here: items and their measured protein stability index.
Lab note: record the figure alone, no unit after it.

Worked examples, 5 sequences total:
| entry-sequence | protein stability index |
| --- | --- |
| HKPNEGRTPNISNGTIN [SIR4] | 2.99 |
| ITATLVGTVRCEEEKKT [CSL4] | 1.67 |
| LKIYYKEEFSSDESIER [RRI2] | 2 |
| FKIHTAKVKKTGEFDFE [RPT4] | 2.29 |
| MTMLTPNYLHLVSSYLN [YML103C/NUP188] | 1.69 |

query: Entry MSHRKYEAPRHGHLGFL [RPL3] needs its protein stability index filled in; supply it.
result: 2.9

query: Provide one value: measured protein stability index of FINNVLSNPSNQNICTS [GRR1]
result: 2.53

query: For the sequence LISSSQDMQLKIWSVKD [RPN14] , report protein stability index.
result: 2.56

query: Return protein stability index (reported value) for this sequence: QAQAQAQAQAQAQAQAQ [GAL11]
result: 3.1

query: In one line, give reported protein stability index of the entry GSRMVRELFVMAREHAP [RPT6] .
result: 1.09

query: Please indicate protein stability index recorded for QMLIQGVWDVDNPLRQI [BRR2]
result: 3.47

* * *

- measurement-protocol: protein stability index of a GFP-peptide fusion (yeast GPS) (PSI 1-4); higher = more stable; sorted into four equal gates, so the index is relative within each strain
- condition-parameters: ubr1∆
quantity-name: protein stability index

Answered cases to consult:
| entry-sequence | result |
| --- | --- |
| AILLIINLTQTYGISVV [NUT1] | 1.43 |
| LRSIYHQFHDILEEKTD [NSL1] | 2.04 |
| QDIKKAKRVENFNSSAP [DSN1] | 3.42 |
| AGCKIDNVDDIGEFNVS [YDL088C/ASM4] | 3.06 |
| IFLQQFLQELLKKVQQQ [SWI1] | 2.5 |
| LTLRKAKAPSGLDQSRI [FAS1] | 3.13 |
| TENAIEEKVIERAAQKL [ISW2] | 2.79 |
| IEEQDKKVQALQSDKNF [ITC1] | 3.16 |

query: # return recorded protein stability index for entry RLEFDQDRDRFFLRDTL [SNF5]
result: 3.4

query: Name the recorded protein stability index of the item LVLLNGRLRNKSHKQTI [RPP1] in your answer.
result: 2.97

query: Given the sequence CIFGDAFDVDRAKSCGV [RPL1A] , write its reported protein stability index.
result: 2.59

query: Retrieve protein stability index measured for NYLLKRNEDARRNLRYG [RPO31] and print it.
result: 3.56
